For each entry below, report its remaining at 1 h, 1 µM value.
Assay: Protease stability in simulated gastric fluids (FaSSGF) (Table 7)
Type: in vitro ADME
Details: fassgf with pepsin, 60 min, 37° C., read-out: Remaining percentage of peptide compound, FaSSGF 60 (min)
Protocol: Studies were carried out in simulated intestinal fluid (SIF) and simulated gastric fluid (SGF) to evaluate gastric stability of the peptide compounds disclosed herein. […] To 76 μL of the Pepsin-SGF buffer, 4 μL of the 20 μM peptide stock solution was added and incubated at 37° C. […] The samples were centrifuged for 20 minutes and an aliquot of the supernatant 100 μL were transferred to a LoBind-MTP plate and analyzed by LCMS/MS. […]
Numbered stars: 1 amine (or outer) side, 2 acyl side, 3 side chain; on linkers, the order of the positions; unused ones are H or OH. Bridge positions count the residues as written; N and C are the ends. Square brackets hold non-standard residues; d marks the D form. Peptide text beside a SMILES is read from it. * marks the point of attachment. Lys(Me,(CH2)4NMe(CH2)5CO) = CN(CCCCCC(=O)[*:3])CCCCN(C)CCCC[C@H](N[*:1])C(=O)[*:2]; Lys(Me,(CH2)4NMe(CH2)4CO) = CN(CCCCC(=O)[*:3])CCCCN(C)CCCC[C@H](N[*:1])C(=O)[*:2]; Trp(7-Me) = Cc1cccc2c(C[C@H](N)C(=O)O)c[nH]c12; Trp(1-Me) = Cn1cc(C[C@H](N)C(=O)O)c2ccccc21; NH(2-(3-pyridyl)ethyl) = c1cncc(CCN*)c1; Sebacoyl = O=C(CCCCCCCCC(=O)[*:2])[*:1]; αMeLys(Me2) = CN(C)CCCC[C@](C)(N)C(=O)O; 2Nal = N[C@@H](Cc1ccc2ccccc2c1)C(=O)O; X4 = O=C(CCCCCCCCCCCCCCCN[*:1])[*:2]; C12 diacid = O=C(O)CCCCCCCCCCC(=O)*; X1 = O=C(CCCCCCCCCCCCCN[*:1])[*:2]; 3Pal = N[C@@H](Cc1cccnc1)C(=O)O; Aun = NCCCCCCCCCCC(=O)O; Thp = NC1(C(=O)O)CCOCC1; Me2NCH2CH2 = CN(C)CC*; Aib = CC(C)(N)C(=O)O; Aoc = NCCCCCCCC(=O)O; Sar = CNCC(=O)O
Give bare numbers, in %.

Quick request: remaining at 1 h, 1 µM for each listed item, please.
1. CN(C)CCOc1ccc(C[C@@H]2NC(=O)C3(CCOCC3)NC(=O)[C@H](CCC(N)=O)NC(=O)[C@H](Cc3cn(C)c4ccccc34)NC(=O)CCCCN(C)CCCCN(C)CCCC[C@@H](C(=O)NCC(=O)N[C@@H](Cc3cccnc3)C(=O)N(C)CC(N)=O)NC(=O)C(C)(C)NC(=O)[C@H](Cc3ccc4ccccc4c3)NC2=O)cc1 [compound 30] ([Trp(1-Me)]Q[Thp]Y(Me2NCH2CH2)[2Nal][Aib][Lys(Me,(CH2)4NMe(CH2)4CO)]G[3Pal][Sar]-NH2; lactam N-7)
2. Cc1cccc2c(C[C@@H]3NC(=O)CCCCCCCNC(=O)CC[C@@H](C(=O)N[C@@H](CC(N)=O)C(=O)N[C@@H](Cc4cccnc4)C(=O)N(C)CC(N)=O)NC(=O)C(C)(C)NC(=O)[C@H](Cc4ccc5ccccc5c4)NC(=O)[C@H](Cc4ccc(OCCN(C)C)cc4)NC(=O)C4(CCOCC4)NC(=O)[C@H](CCC(N)=O)NC3=O)c[nH]c12 [compound 6] ([Aoc][Trp(7-Me)]Q[Thp]Y(Me2NCH2CH2)[2Nal][Aib]EN[3Pal][Sar]-NH2; lactam N-8)
3. Cc1cccc2c(C[C@@H]3NC(=O)CCCCCCCCCCCCCCCNC(=O)CC[C@@H](C(=O)N[C@@H](CC(N)=O)C(=O)N[C@@H](Cc4cccnc4)C(=O)N(C)CC(N)=O)NC(=O)C(C)(C)NC(=O)[C@H](Cc4ccc5ccccc5c4)NC(=O)[C@H](Cc4ccc(OCCN(C)C)cc4)NC(=O)C4(CCOCC4)NC(=O)[C@H](CCC(N)=O)NC3=O)c[nH]c12 [compound 3] ([X4][Trp(7-Me)]Q[Thp]Y(Me2NCH2CH2)[2Nal][Aib]EN[3Pal][Sar]-NH2; lactam N-8)

98
88
71

Quick request: remaining at 1 h, 1 µM for each listed item, please.
1. CN(C)CCOc1ccc(C[C@@H]2NC(=O)C3(CCOCC3)NC(=O)[C@H](CCC(N)=O)NC(=O)[C@H](Cc3cn(C)c4ccccc34)NC(=O)CCCCN(C)CCCCN(C)CCCC[C@@H](C(=O)NCC(=O)NCCc3cccnc3)NC(=O)C(C)(C)NC(=O)[C@H](Cc3ccc4ccccc4c3)NC2=O)cc1 [compound 25] ([Trp(1-Me)]Q[Thp]Y(Me2NCH2CH2)[2Nal][Aib][Lys(Me,(CH2)4NMe(CH2)4CO)]G-{NH(2-(3-pyridyl)ethyl)}; lactam N-7)
2. Cc1cccc2c(C[C@@H]3NC(=O)CCCCCCCCCCNC(=O)CC[C@@H](C(=O)N[C@@H](CC(N)=O)C(=O)N[C@@H](Cc4cccnc4)C(=O)N(C)CC(N)=O)NC(=O)C(C)(C)NC(=O)[C@H](Cc4ccc5ccccc5c4)NC(=O)[C@H](Cc4ccc(OCCN(C)C)cc4)NC(=O)C4(CCOCC4)NC(=O)[C@H](CC(C)C)NC3=O)c[nH]c12 [compound 7] ([Aun][Trp(7-Me)]L[Thp]Y(Me2NCH2CH2)[2Nal][Aib]EN[3Pal][Sar]-NH2; lactam N-8)
3. Cc1cccc2c(C[C@@H]3NC(=O)CCCCCCCCCCC(=O)NCCCC[C@@H](C(=O)N[C@@H](CC(N)=O)C(=O)N[C@@H](Cc4cccnc4)C(=O)N(C)CC(N)=O)NC(=O)C(C)(C)NC(=O)[C@H](Cc4ccc5ccccc5c4)NC(=O)[C@H](Cc4ccc(OCCN(C)C)cc4)NC(=O)C4(CCOCC4)NC(=O)[C@H](CCC(N)=O)NC3=O)c[nH]c12 [compound 10] ([Trp(7-Me)]Q[Thp]Y(Me2NCH2CH2)[2Nal][Aib]KN[3Pal][Sar]-NH2; linker N-7 via C12 diacid)
4. CC(=O)NCCCC[C@@H]1NC(=O)[C@H](Cc2c[nH]c3c(C)cccc23)NC(=O)CCCCCN(C)CCCCN(C)CCCC[C@@H](C(=O)N[C@@H](CC(N)=O)C(=O)N[C@@H](Cc2cccnc2)C(=O)N(C)CC(N)=O)NC(=O)[C@](C)(CCCCN(C)C)NC(=O)[C@H](Cc2ccc3ccccc3c2)NC(=O)[C@H](Cc2ccc(OCCN(C)C)cc2)NC(=O)C2(CCOCC2)NC1=O [compound 34] ([Trp(7-Me)]K(Ac)[Thp]Y(Me2NCH2CH2)[2Nal][αMeLys(Me2)][Lys(Me,(CH2)4NMe(CH2)5CO)]N[3Pal][Sar]-NH2; lactam N-7)
5. Cc1cccc2c(C[C@@H]3NC(=O)CCCCCCCCCCCCCNC(=O)CC[C@@H](C(=O)N[C@@H](CC(N)=O)C(=O)N[C@@H](Cc4cccnc4)C(=O)N(C)CC(N)=O)NC(=O)C(C)(C)NC(=O)[C@H](Cc4ccc5ccccc5c4)NC(=O)[C@H](Cc4ccc(OCCN(C)C)cc4)NC(=O)C4(CCOCC4)NC(=O)[C@H](CCC(N)=O)NC3=O)c[nH]c12 [compound 1] ([X1][Trp(7-Me)]Q[Thp]Y(Me2NCH2CH2)[2Nal][Aib]EN[3Pal][Sar]-NH2; lactam N-8)

1. 98
2. 6
3. 88
4. 94
5. 77

Please indicate remaining at 1 h, 1 µM recorded for Cc1cccc2c(C[C@@H]3NC(=O)CCCCCCCCC(=O)NCCCC[C@@H](C(=O)N[C@@H](CC(N)=O)C(=O)N[C@@H](Cc4cccnc4)C(=O)N(C)CC(N)=O)NC(=O)C(C)(C)NC(=O)[C@H](Cc4ccc5ccccc5c4)NC(=O)[C@H](Cc4ccc(OCCN(C)C)cc4)NC(=O)C4(CCOCC4)NC(=O)[C@H](CCC(N)=O)NC3=O)c[nH]c12 [compound 11] ([Trp(7-Me)]Q[Thp]Y(Me2NCH2CH2)[2Nal][Aib]KN[3Pal][Sar]-NH2; linker N-7 via Sebacoyl)
98

====

For each entry below, report its solubility at 2 h value.
Test: Solubility of peptide compounds in buffer formulations (Table 5)
Assay type: physicochemical
Details: Buffer pH 1.1 (head; method: 50 mM HCl pH 1.2), 2 h agitation, target 1 mg/ml; read-out: Solubility, Buffer pH 1.1
Numbered stars: 1 amine (or outer) side, 2 acyl side, 3 side chain; on linkers, the order of the positions; unused ones are H or OH. Bridge positions count the residues as written; N and C are the ends. Square brackets hold non-standard residues; d marks the D form. Peptide text beside a SMILES is read from it. * marks the point of attachment. Lys(Me,(CH2)4NMe(CH2)5CO) = CN(CCCCCC(=O)[*:3])CCCCN(C)CCCC[C@H](N[*:1])C(=O)[*:2]; Lys(Me,(CH2)4NMe(CH2)4CO) = CN(CCCCC(=O)[*:3])CCCCN(C)CCCC[C@H](N[*:1])C(=O)[*:2]; Trp(7-Me) = Cc1cccc2c(C[C@H](N)C(=O)O)c[nH]c12; αMeLys(Me2) = CN(C)CCCC[C@](C)(N)C(=O)O; 2Nal = N[C@@H](Cc1ccc2ccccc2c1)C(=O)O; 3Pal = N[C@@H](Cc1cccnc1)C(=O)O; Aun = NCCCCCCCCCCC(=O)O; Thp = NC1(C(=O)O)CCOCC1; Me2NCH2CH2 = CN(C)CC*; Aib = CC(C)(N)C(=O)O; Sar = CNCC(=O)O

Take a look at these entries with their results.
Cc1cccc2c(C[C@@H]3NC(=O)CCCCN(C)CCCCN(C)CCCC[C@@H](C(=O)NCC(=O)N[C@@H](Cc4cccnc4)C(=O)N(C)CC(N)=O)NC(=O)C(C)(C)NC(=O)[C@H](Cc4ccc5ccccc5c4)NC(=O)[C@H](Cc4ccc(OCCN(C)C)cc4)NC(=O)C4(CCOCC4)NC(=O)[C@H](CCC(N)=O)NC3=O)c[nH]c12 [compound 28] ([Trp(7-Me)]Q[Thp]Y(Me2NCH2CH2)[2Nal][Aib][Lys(Me,(CH2)4NMe(CH2)4CO)]G[3Pal][Sar]-NH2; lactam N-7) ... ≥ 1200 µg/mL
Cc1cccc2c(C[C@@H]3NC(=O)CCCCN(C)CCCCN(C)CCCC[C@@H](C(=O)N[C@@H](CC(N)=O)C(=O)N[C@@H](Cc4cccnc4)C(=O)N(C)CC(N)=O)NC(=O)C(C)(C)NC(=O)[C@H](Cc4ccc5ccccc5c4)NC(=O)[C@H](Cc4ccc(OCCN(C)C)cc4)NC(=O)C4(CCOCC4)NC(=O)[C@H](CCC(N)=O)NC3=O)c[nH]c12 [compound 46] ([Trp(7-Me)]Q[Thp]Y(Me2NCH2CH2)[2Nal][Aib][Lys(Me,(CH2)4NMe(CH2)4CO)]N[3Pal][Sar]-NH2; lactam N-7) ... ≥ 960 µg/mL
CC(=O)NCCCC[C@@H]1NC(=O)[C@H](Cc2c[nH]c3c(C)cccc23)NC(=O)CCCCCCCCCCNC(=O)CC[C@@H](C(=O)N[C@@H](CC(N)=O)C(=O)N[C@@H](Cc2cccnc2)C(=O)N(C)CC(N)=O)NC(=O)[C@](C)(CCCCN(C)C)NC(=O)[C@H](Cc2ccc3ccccc3c2)NC(=O)[C@H](Cc2ccc(OCCN(C)C)cc2)NC(=O)C2(CCOCC2)NC1=O [compound 21] ([Aun][Trp(7-Me)]K(Ac)[Thp]Y(Me2NCH2CH2)[2Nal][αMeLys(Me2)]EN[3Pal][Sar]-NH2; lactam N-8) ... ≥ 1150 µg/mL
CN(C)CCOc1ccc(C[C@@H]2NC(=O)C3(CCOCC3)NC(=O)[C@H](CCC(N)=O)NC(=O)[C@H](Cc3c[nH]c4ccccc34)NC(=O)CCCCN(C)CCCCN(C)CCCC[C@@H](C(=O)N[C@@H](CO)C(=O)N[C@@H](Cc3cccnc3)C(=O)N(C)CC(N)=O)NC(=O)C(C)(C)NC(=O)[C@H](Cc3ccc4ccccc4c3)NC2=O)cc1 [compound 41] (WQ[Thp]Y(Me2NCH2CH2)[2Nal][Aib][Lys(Me,(CH2)4NMe(CH2)4CO)]S[3Pal][Sar]-NH2; lactam N-7) ... ≥ 1020 µg/mL

Here is another compound to look at.
Please indicate solubility at 2 h recorded for Cc1cccc2c(C[C@@H]3NC(=O)CCCCCN(C)CCCCN(C)CCCC[C@@H](C(=O)N[C@@H](CC(N)=O)C(=O)N[C@@H](Cc4cccnc4)C(=O)N(C)CC(N)=O)NC(=O)C(C)(C)NC(=O)[C@H](Cc4ccc5ccccc5c4)NC(=O)[C@H](Cc4ccc(OCCN(C)C)cc4)NC(=O)C4(CCOCC4)NC(=O)[C@H](CCC(N)=O)NC3=O)c[nH]c12 [compound 31] ([Trp(7-Me)]Q[Thp]Y(Me2NCH2CH2)[2Nal][Aib][Lys(Me,(CH2)4NMe(CH2)5CO)]N[3Pal][Sar]-NH2; lactam N-7)
≥ 1020 µg/mL
